# Tested on: MOLT-13;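 note: IC50 for suppression of MOLT-13 cell growth, read out with a cell viability assay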
# experimental.details: cells
# Format: functional, cell-based
# conditions.used: Homo sapiens
# Description: SANGER: Inhibition of human MOLT-13 cell growth in a cell viability assay.
assay.metric: IC50 (nM)
Dear colleague, please return just the value in nM, with no unit written.

Here is how some compounds turned out for IC50.
CCC(=O)N1CCN(c2ccc(-n3c(=O)ccc4cnc5ccc(-c6cnc7ccccc7c6)cc5c43)cc2C(F)(F)F)CC1 [TORIN1] | 302
CN(C)C/C=C/C(=O)Nc1cc2c(Nc3ccc(F)c(Cl)c3)ncnc2cc1O[C@H]1CCOC1 [AFATINIB] | 240

// moving on: another record for IC50
Q) If you can, please state the reported IC50 value of COc1ccc(-c2ccc3c(N4CCOC[C@@H]4C)nc(N4CCOC[C@@H]4C)nc3n2)cc1CO [AZD-8055] .
A) 665
